ASSAY: NCI Yeast Anticancer Drug Screen. Data for the mec2-1 strain (AID 157)
STUDY_CONDITIONS: S. cerevisiae mec2-1 strain, at 50.0 µM, stronger effect = higher value
About 79,000 compounds went through this panel and 15% of them were active in at least one assay; those are over-represented in the sample as a whole.
ENDPOINT: growth inhibition (%)
Numeric answer only, unit % assumed.

MOLECULE	UNIT_LABEL	growth inhibition
CCCCN(CCCC)CCC(O)c1ccc(OC)c2ccccc12 (stereo not given)	%	4.55
Fc1c(F)c(F)c(SN=S=Nc2ccccc2)c(F)c1F	%	12.1
CC(NC(=O)C(Cc1ccc(OC(=O)c2ccccc2)cc1)NC(=O)OC(C)(C)C)C(=O)NCC(=O)NC(Cc1ccccc1)NC(=O)OCc1ccccc1 (stereo not given)	%	-24.6

// query Fill in the blank: the reported growth inhibition of COc1ccc(CNc2nc3ccccc3nc2C(=O)O)cc1OC is ____.
// result 18.6

// query // repeat for CCCC(C)C(=O)O (stereo not given) and report
// result -1.95

###

Listed here are molecules together with their documented growth inhibition.
ASSAY: NCI Yeast Anticancer Drug Screen. Data for the mec2-1 strain (AID 157)
STUDY_CONDITIONS: S. cerevisiae mec2-1 strain, at 50.0 µM, stronger effect = higher value
Compounds without any hit were thinned out: in the full panel of roughly 79,000, 15% have a hit.
Numeric only. Scale: %

Example cases with answers are listed next.
MOLECULE	growth inhibition [%]
CC1CC(=O)Oc2cc(O)c(O)cc21 (stereo unspecified)	7.9
Nc1nc(-c2cc(C(c3ccccc3)c3ccccc3)nc(N)n2)cc(C(c2ccccc2)c2ccccc2)n1	13.8
COC1(C2COc3cc(OCc4ccccc4)ccc3C2=O)C=C2OCOC2=CC1=O (stereo unspecified)	-18

// query Which measured growth inhibition value corresponds to O=C(Nc1ccc(Cl)cc1)OCCN(CCOC(=O)Nc1ccc(Cl)cc1)C(=O)Nc1ccc(Cl)cc1 ?
// result -19.1

// query And for CC1CSC(C)C(=O)N1 (stereo unspecified) ?
// result -3.65

// query And then CCOC(=O)c1ccc(NC(=O)c2ccc(Cl)cc2Cl)cc1 , what is it?
// result 18.6

// query // next record O=C(N/N=C/c1cc(Br)cc(Br)c1O)c1ccccc1
// result -1.4

// query Further, for COc1cc(C2=N/C(=C\c3ccc(Cl)c(Cl)c3)C(=O)O2)cc(OC)c1OC ?
// result -14.8

// query Check O=C(O)C1CC(Br)C(Br)CC1C(=O)Nc1cccc2ccccc12 (stereo unspecified) too.
// result 6.45

// query Also CCOC(=O)CN(C=O)C(C)c1ccccc1 (stereo unspecified) , if possible.
// result 18.4

// query What do you have for O=C(CC(=O)C(F)(F)F)c1ccc2c(c1)Cc1ccccc1-2 ?
// result 28.9

###

// growth inhibition lookup, one value per entry
ASSAY: NCI Yeast Anticancer Drug Screen. Data for the cln2 rad14 strain (AID 165);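 further: 0% = growth equal to vehicle treated cultures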
STUDY_CONDITIONS: S. cerevisiae cln2 rad14 strain, at 50.0 µM, stronger effect = higher value
This is part of a sample that, as a whole, favours compounds with a hit. Of some 79,000 tested, about 15% had one in any assay. Calls of active or inactive are those of the source. Rule as the data show it: active = growth inhibition above about 70%; inactive = the rest.

Before answering, review these 4 worked examples.
MOLECULE	growth inhibition
CN(C)/C(=N\N=C(/c1ccc(Cl)cc1)N(C)C)c1ccc(Cl)cc1	-24.9% (inactive)
O=P(O)(O)c1ccc(I)cc1	0.75% (inactive)
CC(=O)CCCCCCCCCCCCCC(C)=O	-10.8% (inactive)
Nc1ccc(S(=O)(=O)c2cnc(N)s2)cc1	-3.25% (inactive)

// query Tell me the measured growth inhibition of Clc1nncc2sc(-c3ccccc3)nc12 , please.
// result 17.4% (inactive)

// query // repeat for CCOC(=O)c1ncn2c1[nH]c(=S)c1ccccc12 and report
// result -0.95% (inactive)

// query Next entry: CC/C(=C\c1ccccc1OC)c1ccncc1
// result 12.2% (inactive)

// query Please give the result for Cc1ccc(CC(=O)N(C)C)c([N+](=O)[O-])c1 too.
// result 0.95% (inactive)

// query One more molecule: COc1cc(N=Nc2ccc(S(=O)(=O)O)cc2)ccc1N=Nc1ccc2c(S(=O)(=O)O)cccc2c1O
// result 11.4% (inactive)

// query What about this molecule? CC(C)/C(=N\[N+](C)(C)C)c1ccccc1
// result -3.05% (inactive)

// query What do you have for O/N=C\c1cccc[n+]1Cc1ccc2ccccc2c1Br ?
// result -7.05% (inactive)

// query COc1ccc2c(c1)C1CCCCC1SCC2=O (configuration not stated) ?
// result -10.9% (inactive)
